Here, each record is paired with measured % Inhibition at 50 μM data.
Target: VIM2 (Escherichia coli, UniProt Q5U7L7)
Format: biochemical, P. aeruginosa
Conditions: 50 μM compound, 5 nM VIM-2, 10 μM nitrocefin, 30 mins
All answers are understood in %, so give the number only.

// worked examples, % Inhibition at 50 μM included
In [3]: df
Out[3]:
                                   compound  assay_result
0                      [Na+].[O-]n1ccccc1=S            93
1                       O=C(O)c1cccc(=S)n1O            98
2          C[C@H](CS)C(=O)N1CCC[C@H]1C(=O)O            98
3  C[C@]1(Cn2ccnn2)[C@H](C(=O)O)N2C(=O)C[C@H]2S1(=O)=O            25

Now examine the next entry.
Please report the recorded % Inhibition at 50 μM for O=C(O)[C@H]1/C(=C/CO)O[C@@H]2CC(=O)N21 [Clavulanate] .
15
